# minimum inhibitory concentration per entry
tested on: Enterococcus spp.; assay: minimum inhibitory concentration (MIC); settings: isolate (source animal id): 175
readout name: minimum inhibitory concentration

smiles_structure=CN[C@@H]1[C@H](O)[C@H](NC)[C@H]2O[C@@]3(O)C(=O)C[C@@H](C)O[C@H]3O[C@@H]2[C@H]1O readout_name="minimum inhibitory concentration" result_value="64 µg/mL"
smiles_structure=COc1cc(NS(=O)(=O)c2ccc(N)cc2)nc(OC)n1 readout_name="minimum inhibitory concentration" result_value="> 256 µg/mL"
smiles_structure=CN(C)[C@@H]1C(O)=C(C(N)=O)C(=O)[C@@]2(O)C(O)=C3C(=O)c4c(O)cccc4[C@@](C)(O)[C@H]3C[C@@H]12 readout_name="minimum inhibitory concentration" result_value="> 8 µg/mL"
smiles_structure=COc1cc(Cc2cnc(N)nc2N)cc(OC)c1OC.Cc1cc(NS(=O)(=O)c2ccc(N)cc2)no1 readout_name="minimum inhibitory concentration" result_value="≤ 2 µg/mL"
smiles_structure=CCC[C@@H]1C[C@@H](C(=O)N[C@@H]([C@H]2O[C@H](SC)[C@H](O)[C@@H](O)[C@H]2O)[C@H](C)Cl)N(C)C1 readout_name="minimum inhibitory concentration" result_value="> 16 µg/mL"

###

system: Escherichia coli; test: minimum inhibitory concentration (MIC); settings: isolate (source animal id): 185
readout name: minimum inhibitory concentration

smiles_structure=CS(=O)(=O)c1ccc([C@@H](O)[C@@H](CF)NC(=O)C(Cl)Cl)cc1 readout_name="minimum inhibitory concentration" result_value="> 8 µg/mL"
smiles_structure=CN1C[C@@H]2C[C@H]1CN2c1cc2c(cc1F)c(=O)c(C(=O)O)cn2C1CC1 readout_name="minimum inhibitory concentration" result_value="≤ 0.12 µg/mL"
smiles_structure=COc1cc(NS(=O)(=O)c2ccc(N)cc2)nc(OC)n1 readout_name="minimum inhibitory concentration" result_value="> 256 µg/mL"
smiles_structure=CCC[C@@H]1C[C@@H](C(=O)N[C@@H]([C@H]2O[C@H](SC)[C@H](O)[C@@H](O)[C@H]2O)[C@H](C)Cl)N(C)C1 readout_name="minimum inhibitory concentration" result_value="> 16 µg/mL"
smiles_structure=NC[C@@H]1O[C@H](O[C@H]2[C@@H](O)[C@H](O[C@@H]3[C@@H](O)[C@H](N)C[C@H](N)[C@H]3O[C@H]3O[C@H](CN)[C@@H](O)[C@H](O)[C@H]3N)O[C@@H]2CO)[C@H](N)[C@@H](O)[C@@H]1O readout_name="minimum inhibitory concentration" result_value="≤ 4 µg/mL"
smiles_structure=CC1(C)S[C@@H]2[C@H](NC(=O)[C@H](N)c3ccccc3)C(=O)N2[C@H]1C(=O)O readout_name="minimum inhibitory concentration" result_value="4 µg/mL"
smiles_structure=COc1cc(Cc2cnc(N)nc2N)cc(OC)c1OC.Cc1cc(NS(=O)(=O)c2ccc(N)cc2)no1 readout_name="minimum inhibitory concentration" result_value="≤ 2 µg/mL"
smiles_structure=CC[C@H]1OC(=O)C[C@@H](O)[C@H](C)[C@@H](O[C@@H]2O[C@H](C)[C@@H](O)[C@H](N(C)C)[C@H]2O)[C@@H](CCN2C[C@H](C)C[C@H](C)C2)C[C@@H](C)C(=O)/C=C/C(C)=C/[C@@H]1CO[C@@H]1O[C@H](C)[C@@H](O)[C@@H](OC)[C@H]1OC readout_name="minimum inhibitory concentration" result_value="> 16 µg/mL"

###

tested on: Enterococcus spp.; assay: minimum inhibitory concentration (MIC); settings: isolate (source animal id): 122
readout name: minimum inhibitory concentration

smiles_structure=CC[C@H]1OC(=O)C[C@@H](O)[C@H](C)[C@@H](O[C@@H]2O[C@H](C)[C@@H](O[C@H]3C[C@@](C)(O)[C@@H](O)[C@H](C)O3)[C@H](N(C)C)[C@H]2O)[C@@H](CC=O)C[C@@H](C)C(=O)/C=C/C(C)=C/[C@@H]1CO[C@@H]1O[C@H](C)[C@@H](O)[C@@H](OC)[C@H]1OC result_value="> 32 µg/mL"
smiles_structure=CC[C@H]1OC(=O)C[C@@H](O)[C@H](C)[C@@H](O[C@@H]2O[C@H](C)[C@@H](O)[C@H](N(C)C)[C@H]2O)[C@@H](CCN2C[C@H](C)C[C@H](C)C2)C[C@@H](C)C(=O)/C=C/C(C)=C/[C@@H]1CO[C@@H]1O[C@H](C)[C@@H](O)[C@@H](OC)[C@H]1OC result_value="> 16 µg/mL"
smiles_structure=CN(C)[C@@H]1C(O)=C(C(N)=O)C(=O)[C@@]2(O)C(O)=C3C(=O)c4c(O)cccc4[C@@](C)(O)[C@H]3C[C@@H]12 result_value="> 8 µg/mL"
smiles_structure=CCC[C@@H]1C[C@@H](C(=O)N[C@@H]([C@H]2O[C@H](SC)[C@H](O)[C@@H](O)[C@H]2O)[C@H](C)Cl)N(C)C1 result_value="> 16 µg/mL"

###

A collection of compounds and their measured minimum inhibitory concentration
test system: Mannheimia haemolytica; assay: minimum inhibitory concentration (MIC); details: isolate (source animal id): 306
readout name: minimum inhibitory concentration (µg/mL)

compound="CN1C[C@@H]2C[C@H]1CN2c1cc2c(cc1F)c(=O)c(C(=O)O)cn2C1CC1 [Danofloxacin]" readout_name="minimum inhibitory concentration" display_unit=µg/mL reported_relation=≤ result_value=0.12
compound="CN[C@@H]1[C@H](O)[C@H](NC)[C@H]2O[C@@]3(O)C(=O)C[C@@H](C)O[C@H]3O[C@@H]2[C@H]1O [Spectinomycin]" readout_name="minimum inhibitory concentration" display_unit=µg/mL reported_relation== result_value=32
compound="CNC(C)C1CCC(N)C(OC2C(N)CC(N)C(OC3OCC(C)(O)C(NC)C3O)C2O)O1 (stereo not given) [Gentamicin]" readout_name="minimum inhibitory concentration" display_unit=µg/mL reported_relation== result_value=2
compound="COc1cc(NS(=O)(=O)c2ccc(N)cc2)nc(OC)n1 [sulfadimethoxine]" readout_name="minimum inhibitory concentration" display_unit=µg/mL reported_relation=> result_value=256
compound="CC1(C)S[C@@H]2[C@H](NC(=O)[C@H](N)c3ccccc3)C(=O)N2[C@H]1C(=O)O [Ampicillin]" readout_name="minimum inhibitory concentration" display_unit=µg/mL reported_relation=≤ result_value=0.25

###

Each entry below carries its recorded minimum inhibitory concentration.
tested on: Mannheimia haemolytica; test: minimum inhibitory concentration (MIC); details: isolate (source animal id): 145
readout name: minimum inhibitory concentration

smiles_structure=COc1cc(NS(=O)(=O)c2ccc(N)cc2)nc(OC)n1 result_value="> 256 µg/mL"
smiles_structure=COc1cc(Cc2cnc(N)nc2N)cc(OC)c1OC.Cc1cc(NS(=O)(=O)c2ccc(N)cc2)no1 result_value="≤ 2 µg/mL"
smiles_structure=CC[C@H]1OC(=O)C[C@@H](O)[C@H](C)[C@@H](O[C@@H]2O[C@H](C)[C@@H](O)[C@H](N(C)C)[C@H]2O)[C@@H](CCN2C[C@H](C)C[C@H](C)C2)C[C@@H](C)C(=O)/C=C/C(C)=C/[C@@H]1CO[C@@H]1O[C@H](C)[C@@H](O)[C@@H](OC)[C@H]1OC result_value="16 µg/mL"
smiles_structure=NC[C@@H]1O[C@H](O[C@H]2[C@@H](O)[C@H](O[C@@H]3[C@@H](O)[C@H](N)C[C@H](N)[C@H]3O[C@H]3O[C@H](CN)[C@@H](O)[C@H](O)[C@H]3N)O[C@@H]2CO)[C@H](N)[C@@H](O)[C@@H]1O result_value="> 32 µg/mL"
smiles_structure=CN1C[C@@H]2C[C@H]1CN2c1cc2c(cc1F)c(=O)c(C(=O)O)cn2C1CC1 result_value="> 1 µg/mL"
smiles_structure=CN(C)[C@@H]1C(O)=C(C(N)=O)C(=O)[C@@]2(O)C(O)=C3C(=O)c4c(O)cccc4[C@@](C)(O)[C@H]3C[C@@H]12 result_value="4 µg/mL"

###

In this section, each of the molecules is paired with its reported minimum inhibitory concentration.
test system: Enterococcus spp.; assay: minimum inhibitory concentration (MIC); settings: isolate (source animal id): 282
readout name: minimum inhibitory concentration (µg/mL)

smiles_structure=CO/N=C(\C(=O)N[C@@H]1C(=O)N2C(C(=O)O)=C(CSC(=O)c3ccco3)CS[C@H]12)c1csc(N)n1 readout_name="minimum inhibitory concentration" display_unit=µg/mL reported_relation=> result_value=8
smiles_structure=CC1(C)S[C@@H]2[C@H](NC(=O)Cc3ccccc3)C(=O)N2[C@H]1C(=O)O readout_name="minimum inhibitory concentration" display_unit=µg/mL reported_relation== result_value=2
smiles_structure=CS(=O)(=O)c1ccc([C@@H](O)[C@@H](CF)NC(=O)C(Cl)Cl)cc1 readout_name="minimum inhibitory concentration" display_unit=µg/mL reported_relation== result_value=1
smiles_structure=CCC[C@@H]1C[C@@H](C(=O)N[C@@H]([C@H]2O[C@H](SC)[C@H](O)[C@@H](O)[C@H]2O)[C@H](C)Cl)N(C)C1 readout_name="minimum inhibitory concentration" display_unit=µg/mL reported_relation== result_value=4
smiles_structure=CN(C)[C@@H]1C(O)=C(C(N)=O)C(=O)[C@@]2(O)C(O)=C3C(=O)c4c(O)cccc4[C@@](C)(O)[C@H]3C[C@@H]12 readout_name="minimum inhibitory concentration" display_unit=µg/mL reported_relation=≤ result_value=0.5
smiles_structure=COc1cc(NS(=O)(=O)c2ccc(N)cc2)nc(OC)n1 readout_name="minimum inhibitory concentration" display_unit=µg/mL reported_relation=> result_value=256
